Target: the molecule itself
Experiment: SEC; Superdex 200 10/300GL, 10 mM HEPES pH 7.3, 100 mM NaCl; apparent molecular weight estimated from protein standards; native purified protein
Parameter Measured: binding result

pZIP4-ECD C64R variant (domain or fragment, Pteropus alecto, UniProt L5KLU7 36-322, looked up, ZIP4 of Pteropus alecto, extracellular domain, residues 36-322 of ELK11751, with C64R (equivalent to C62R of human ZIP4); source: E. coli Origami B(DE3) pLysS, purified (Ni-NTA, Mono-Q, SEC); not shown: His6, N-terminal, cleaved) SGQGALDRVALGGLLNTLAARVHCTSGPRGKCLSVDDLLALGRPEEPGHLARLSAAAALYLSDPEGTCEDIRAGRWASRADHLLALLEGPKALAPGLSRLLQRIQAQTTGQPSAGEACVDPPQLLREAGVAGAPGSPGPVLATLLEHVGRGSCFHTLPTPQYFVDFVFQQSHGNTPNISVAELAALMQRLGVGGVTETHSDHHHQEKRVNRQGPTPLTAPNSSSDTWDTVCLSARDVMAVYGLSEQTGVTPEAWAQLSPALLQQQLSGACSPQPSHPAQNQLSQAEK ... binds
pZIP4-ECD P193L variant (domain or fragment, Pteropus alecto, UniProt L5KLU7 36-322, looked up, ZIP4 of Pteropus alecto, extracellular domain, residues 36-322 of ELK11751, with P193L (equivalent to P200L of human ZIP4); source: E. coli Origami B(DE3) pLysS, purified (Ni-NTA, Mono-Q, SEC); not shown: His6, N-terminal, cleaved) SGQGALDRVALGGLLNTLAARVHCTSGPCGKCLSVDDLLALGRPEEPGHLARLSAAAALYLSDPEGTCEDIRAGRWASRADHLLALLEGPKALAPGLSRLLQRIQAQTTGQPSAGEACVDPPQLLREAGVAGAPGSPGPVLATLLEHVGRGSCFHTLLTPQYFVDFVFQQSHGNTPNISVAELAALMQRLGVGGVTETHSDHHHQEKRVNRQGPTPLTAPNSSSDTWDTVCLSARDVMAVYGLSEQTGVTPEAWAQLSPALLQQQLSGACSPQPSHPAQNQLSQAEK ... binds
pZIP4-ECD A91T variant (domain or fragment, Pteropus alecto, UniProt L5KLU7 36-322, looked up, ZIP4 of Pteropus alecto, extracellular domain, residues 36-322 of ELK11751, with A91T (equivalent to A99T of human ZIP4); source: E. coli Origami B(DE3) pLysS, purified (Ni-NTA, Mono-Q, SEC); not shown: His6, N-terminal, cleaved) SGQGALDRVALGGLLNTLAARVHCTSGPCGKCLSVDDLLALGRPEEPGHLARLSATAALYLSDPEGTCEDIRAGRWASRADHLLALLEGPKALAPGLSRLLQRIQAQTTGQPSAGEACVDPPQLLREAGVAGAPGSPGPVLATLLEHVGRGSCFHTLPTPQYFVDFVFQQSHGNTPNISVAELAALMQRLGVGGVTETHSDHHHQEKRVNRQGPTPLTAPNSSSDTWDTVCLSARDVMAVYGLSEQTGVTPEAWAQLSPALLQQQLSGACSPQPSHPAQNQLSQAEK ... binds
